target: human TNFα (Homo sapiens); construct: purchased Biosource, Camarillo, Calif; assay: p55 Receptor/IgG Fusion Protein Binding Assay (inhibition of TNFα capture by p55-Ig coated plate); conditions: peptide 1 mM; TNFα 25 ng/ml; read-out: inhibition of binding of TNFα to p55TNFr-IgG chimeric construct
Sequence (P01375 77-233 limits assumed): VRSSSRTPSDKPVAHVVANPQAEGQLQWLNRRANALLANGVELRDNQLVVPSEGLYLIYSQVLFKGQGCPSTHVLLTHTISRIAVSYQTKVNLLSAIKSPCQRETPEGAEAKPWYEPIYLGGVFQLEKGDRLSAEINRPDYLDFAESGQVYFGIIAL
Where a SMILES comes first, the peptide text is derived from it.
Measured Attribute: inhibition at 1000 µM (%)
Expressed in %, but write only the number.

Guide cases for inhibition at 1000 µM, answers given:
[[record]]
molecule = "C[C@H](NC(=O)[C@H](CCC(=O)O)NC(=O)[C@H](CCCNC(=N)N)NC(=O)[C@H](C)NC(=O)[C@H](CC(=O)O)NC(=O)[C@@H](NC(=O)[C@H](CC(=O)O)NC(=O)[C@H](CCC(N)=O)NC(=O)CNC(=O)[C@@H]1CCCN1C(=O)CNC(=O)[C@@H]1CCCN1C(=O)[C@H](C)NC(=O)[C@@H](N)CC(=O)O)[C@@H](C)O)C(=O)N[C@@H](CCC(=O)O)C(N)=O [SEQ ID NO:2] (H-DAPGPGQDTDAREAE-NH2)"
experimental_target = "human TNFα (Homo sapiens)"
measured_attribute = "inhibition at 1000 µM"
quantitative_result = 62

[[record]]
molecule = "CC(C)C[C@H](NC(=O)[C@H](CC(N)=O)NC(=O)[C@H](CCC(=O)O)NC(=O)[C@H](CO)NC(=O)[C@H](Cc1c[nH]c2ccccc12)NC(=O)[C@H](Cc1ccc(O)cc1)NC(=O)[C@H](Cc1c[nH]cn1)NC(=O)[C@H](CCCNC(=N)N)NC(=O)[C@H](Cc1ccc(O)cc1)NC(=O)[C@H](CCC(N)=O)NC(=O)[C@H](CC(N)=O)NC(=O)[C@H](CCCCN)NC(=O)[C@@H](N)CCCNC(=N)N)C(=O)N[C@@H](Cc1ccccc1)C(=O)N[C@@H](CCC(N)=O)C(N)=O"
experimental_target = "human TNFα (Homo sapiens)"
measured_attribute = "inhibition at 1000 µM"
quantitative_result = 49


Now, please, on to the next molecule.
Quick one: inhibition at 1000 µM of CC(C)C[C@H](NC(=O)[C@H](CCCNC(=N)N)NC(=O)[C@H](C)NC(=O)[C@@H](NC(=O)[C@H](CO)NC(=O)CNC(=O)[C@@H]1CCCN1C(=O)[C@H](CCC(=O)O)NC(=O)[C@@H]1CCCN1C(=O)[C@H](C)NC(=O)[C@@H](N)Cc1ccc(O)cc1)[C@@H](C)O)C(=O)N[C@@H](CCCNC(=N)N)C(=O)N[C@@H](CCC(=O)O)C(=O)N[C@@H](Cc1ccc(O)cc1)C(=O)N[C@@H](Cc1ccc(O)cc1)C(N)=O [SEQ ID NO:26] (H-YAPEPGSTARLREYY-NH2) ?
71

// provenance: patent US5486595A
